All values here come from paper PMC9095466.

# Ki per record follows
molecular target: human cathepsin L (Homo sapiens, UniProt P07711); construct: purchased Bio-Techne; experiment: Protease selectivity, Ki on protease; assay type: biochemical; conditions: mean ± s.d., max concentration 10 µM; read-out: Ki Cathepsin L
Sequence (P07711 114-333): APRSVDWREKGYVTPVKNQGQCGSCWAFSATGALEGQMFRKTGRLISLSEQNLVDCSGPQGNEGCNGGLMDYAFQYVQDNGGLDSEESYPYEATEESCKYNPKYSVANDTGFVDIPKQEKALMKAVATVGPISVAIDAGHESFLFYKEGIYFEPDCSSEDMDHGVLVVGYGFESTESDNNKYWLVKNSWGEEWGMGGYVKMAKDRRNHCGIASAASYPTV
Record the value in µM, omitting the unit from your answer.

MOLECULE	READOUT VALUE
CS(=O)(=O)NC(CCC(N)=O)C(=O)NC(Cc1ccccc1)C(=O)NC(CCCNC(=N)N)C(=O)c1nc2ccccc2s1 (stereo not shown)	6.29

Now look at this entry.
## Input Quick one: Ki of CC(=O)NC(CCC(N)=O)C(=O)NC(Cc1ccccc1)C(=O)NC(CCCNC(=N)N)C(=O)c1nc2ccccc2s1 (stereo not shown) ?
## Output 7.72

###

# viability at 24 h, 0.3 µM per record follows
assay: Cytotoxicity CC50 in Calu-3 lung epithelial cells; type: cell-based, human; conditions: human, Calu-3 cells, Log [inhibitor] -6.52; single replicates; read-out: % of Viability
Record the value in %, omitting the unit from your answer.

Worked examples follow.
COMPOUND	READOUT VALUE
CS(=O)(=O)N[C@@H](CCC(N)=O)C(=O)N[C@@H](Cc1ccccc1)C(=O)N[C@@H](CCCNC(=N)N)C(=O)c1nc2ccccc2s1	113
N=C(N)NCCCCC(=O)N[C@@H](CCC(=O)O)C(=O)N[C@@H](Cc1ccccc1)C(=O)N[C@@H](CCCNC(=N)N)C(=O)c1nc2ccccc2s1	111
N=C(N)NCCCCC(=O)NC(CCC(N)=O)C(=O)NC(Cc1ccccc1)C(=O)NC(CCCNC(=N)N)C(=O)c1nc2ccccc2s1 (stereo not shown)	103

Now look at this entry.
## Input Quick one: viability at 24 h, 0.3 µM of "CC(=O)N[C@@H](CCC(N)=O)C(=O)N[C@@H](Cc1ccccc1)C(=O)N[C@@H](CCCNC(=N)N)C(=O)c1nc2ccccc2s1" ?
## Output 98

###

assay: Cytotoxicity CC50 in Calu-3 lung epithelial cells; assay type: cell-based, human; conditions: human, Calu-3 cells, Log [inhibitor] -4.00; single replicates; read-out: % of Viability
# viability at 24 h, 100 µM per record follows
Record the value in %, omitting the unit from your answer.

Worked examples follow.
COMPOUND	viability at 24 h, 100 µM / %
N=C(N)NCCCCC(=O)NC(CCC(N)=O)C(=O)NC(Cc1ccccc1)C(=O)NC(CCCNC(=N)N)C(=O)c1nc2ccccc2s1 (stereo not shown)	88
CC(=O)N[C@@H](CCC(N)=O)C(=O)N[C@@H](Cc1ccccc1)C(=O)N[C@@H](CCCNC(=N)N)C(=O)c1nc2ccccc2s1	86
CS(=O)(=O)N[C@@H](CCC(N)=O)C(=O)N[C@@H](Cc1ccccc1)C(=O)N[C@@H](CCCNC(=N)N)C(=O)c1nc2ccccc2s1	94

Now look at this entry.
## Input Quick one: viability at 24 h, 100 µM of "N=C(N)NCCCCC(=O)N[C@@H](CCC(=O)O)C(=O)N[C@@H](Cc1ccccc1)C(=O)N[C@@H](CCCNC(=N)N)C(=O)c1nc2ccccc2s1" ?
## Output 81

###

assay: Cytotoxicity CC50 in Calu-3 lung epithelial cells; assay type: cell-based, human; details: human, Calu-3 cells, Log [inhibitor] -4.00; read-out: % of Viability, Average (n=2)
PROPERTY LABEL: viability at 24 h, 100 µM (%)
Record the value in %, omitting the unit from your answer.

Worked examples follow.
COMPOUND	UNIT ABBREV	READOUT VALUE
CC(=O)N[C@@H](CCC(N)=O)C(=O)N[C@@H](Cc1ccccc1)C(=O)N[C@@H](CCCNC(=N)N)C(=O)c1nc2ccccc2s1	%	87
N=C(N)NCCCCC(=O)NC(CCC(N)=O)C(=O)NC(Cc1ccccc1)C(=O)NC(CCCNC(=N)N)C(=O)c1nc2ccccc2s1 (stereo not shown)	%	91
CS(=O)(=O)N[C@@H](CCC(N)=O)C(=O)N[C@@H](Cc1ccccc1)C(=O)N[C@@H](CCCNC(=N)N)C(=O)c1nc2ccccc2s1	%	91

Now look at this entry.
## Input Quick one: viability at 24 h, 100 µM of "N=C(N)NCCCCC(=O)N[C@@H](CCC(=O)O)C(=O)N[C@@H](Cc1ccccc1)C(=O)N[C@@H](CCCNC(=N)N)C(=O)c1nc2ccccc2s1" ?
## Output 86
